Numbers sourced from ChEMBL document CHEMBL1141867.

Test system: Mycobacterium tuberculosis
Assay: Antitubercular activity against Mycobacterium tuberculosis H37Ra
Assay type: functional

compound	MIC (µg/mL)
COc1ccc(-c2cc(-c3ccc(O)cc3)nc(NCCCn3ccnc3)n2)cc1	12.5
CCN(CC)CCCC(C)Nc1nc(-c2ccc(O)cc2)cc(-c2cc(OC)ccc2OC)n1 (configuration not stated)	12.5
CCN(CC)CCCC(C)Nc1nc(-c2ccc(O)cc2)cc(-c2ccc(OC)cc2)n1 (configuration not stated)	12.5
COc1ccc(OC)c(-c2cc(-c3ccc(O)cc3)nc(NCCCn3ccnc3)n2)c1	12.5
COc1ccc(-c2cc(-c3ccc(O)cc3)nc(NCCCn3ccnc3)n2)cc1OC	12.5
Oc1ccc(-c2cc(-c3ccccc3)nc(NCCCN3CCOCC3)n2)cc1	12.5
CCN(CC)CCCC(C)Nc1nc(-c2ccc(O)cc2)cc(-c2ccc(OC)c(OC)c2)n1 (configuration not stated)	12.5
COc1ccc(OC)c(-c2cc(-c3ccc(O)cc3)nc(NCCCN3CCOCC3)n2)c1	25
COc1ccc(-c2cc(-c3ccc(O)cc3)nc(NCCCN3CCOCC3)n2)cc1OC	25
CCN(CC)CCCC(C)Nc1nc(-c2ccccc2)cc(-c2ccc(O)cc2)n1 (configuration not stated)	25
Oc1ccc(-c2cc(-c3ccccc3)nc(NCCCn3ccnc3)n2)cc1	25
COc1ccc(-c2cc(-c3ccc(O)cc3)nc(NCCCN3CCOCC3)n2)cc1	12.5
